- STUDY SYSTEM: UniProtKB Q9NZQ7
OUTCOME MEASURE: pKd
// pKd: -log10(molar conc.)

Inquiry: Give a short answer stating reported pKd for Cc1c(COc2cc(OCc3cccc(C#N)c3)c(CN3CCCCC3C(=O)NCCNC(=O)CCCC[C@@H]3SC[C@@H]4NC(=O)N[C@@H]43)cc2Cl)cccc1-c1ccccc1 (stereo partly specified) .
Reply text: 7.36

* * *

- ASSAY DETAILS: Drug concentration in kidney of C57BL/6 mouse implanted with mouse B16-F10 cells at 50 mg/kg, ip measured after 2 hrs by UPLC-MS/MS analysis
- Type: ADME, organism-based
- CONDITION: read-out: Ct
OUTCOME MEASURE: concentration at 2 h (ng/mL)
Form entry: value (ng/mL) — number only.

Inquiry: Give a short answer stating reported concentration at 2 h for Cc1c(COc2cc(OCc3cccc(C#N)c3)c(CN3CCCCC3C(=O)NCCNC(=O)CCCC[C@@H]3SC[C@@H]4NC(=O)N[C@@H]43)cc2Cl)cccc1-c1ccccc1 (stereo partly specified) .
Reply text: 208

* * *

inhibition values, listed per item
- STUDY SYSTEM: Programmed cell death protein 1/Programmed cell death 1 ligand 1 (Homo sapiens) (UniProt Q15116+Q9NZQ7)
- ASSAY DETAILS: Inhibition of GST-tagged PD-1 (unknown origin)/His-tagged PD-L1 (unknown origin) interaction at 100 nM by HTRF binding assay relative to control
- Assay type: protein-complex assay
Form entry: value (%) — number only.

Below: 2 compounds and their reported inhibition.
• Cc1c(COc2cc(OCc3cccc(C#N)c3)c(CNC(C)(C)C(=O)N3CCN(C(=O)CCCC[C@@H]4SC[C@@H]5NC(=O)N[C@@H]54)CC3)cc2Cl)cccc1-c1ccccc1 = 68.1
• Cc1c(COc2cc(OCc3cccc(C#N)c3)c(CN3CCCCC3C(=O)NCCNC(=O)CCCC[C@H]3SC[C@H]4NC(=O)N[C@H]43)cc2Cl)cccc1-c1ccc2c(c1)OCCO2 (stereo partly drawn) = 88.5

Moving on to the next compound.
Inquiry: Give a short answer stating reported inhibition for `Cc1c(COc2cc(OCc3cccc(C#N)c3)c(CNC(C)(C)C(=O)N3CCN(C(=O)CCCC[C@H]4SC[C@H]5NC(=O)N[C@H]54)CC3)cc2Cl)cccc1-c1ccc2c(c1)OCCO2` .
Reply text: 59.3

* * *

pEC50 values, listed per item
- STUDY SYSTEM: Programmed cell death protein 1/Programmed cell death 1 ligand 1 (Homo sapiens, UniProt Q9NZQ7)
- Sequence (Q15116 whole entry): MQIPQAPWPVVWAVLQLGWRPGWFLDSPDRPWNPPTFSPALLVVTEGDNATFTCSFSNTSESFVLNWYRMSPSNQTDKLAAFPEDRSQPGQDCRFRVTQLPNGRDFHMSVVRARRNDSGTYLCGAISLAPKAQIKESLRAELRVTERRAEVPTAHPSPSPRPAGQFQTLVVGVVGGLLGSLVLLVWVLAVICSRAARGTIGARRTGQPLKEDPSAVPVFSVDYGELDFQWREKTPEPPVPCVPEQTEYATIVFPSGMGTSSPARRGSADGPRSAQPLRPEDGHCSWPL
- Sequence (Q9NZQ7 whole entry): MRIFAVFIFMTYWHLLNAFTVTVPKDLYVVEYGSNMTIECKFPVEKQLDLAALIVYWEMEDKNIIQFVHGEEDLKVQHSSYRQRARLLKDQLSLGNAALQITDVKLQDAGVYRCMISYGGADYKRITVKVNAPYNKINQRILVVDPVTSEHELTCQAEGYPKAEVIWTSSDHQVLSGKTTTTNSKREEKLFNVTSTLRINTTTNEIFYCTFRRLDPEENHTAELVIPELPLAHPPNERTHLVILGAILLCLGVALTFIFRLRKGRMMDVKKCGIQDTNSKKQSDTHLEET
- ASSAY DETAILS: Inhibition of interaction of PD-1 (unknown origin) expressed in Jurkat T cells carrying luciferase reporter under the control of NFAT promoter/PD-L1 (unknown origin) expressed in CHO cells co-expressing TCR ligand and T-cell surrogate pretreated with CHO cells for 0.5 hrs followed by Jurkat T cell addition and measured after 5 hrs by luminescence based analysis
// pEC50: -log10(molar conc.)

• Cc1c(COc2cc(OCc3cccc(C#N)c3)c(CN3CCCCC3C(=O)NCCNC(=O)CCCC[C@@H]3SC[C@@H]4NC(=O)N[C@@H]43)cc2Cl)cccc1-c1ccccc1 (some centres not stated) = 6.04

Moving on to the next compound.
Inquiry: Give a short answer stating reported pEC50 for Cc1c(COc2cc(OCc3cccc(C#N)c3)c(CN3CCCCC3C(=O)NCCN)cc2Cl)cccc1-c1ccccc1 (configuration not stated) .
Reply text: 5.33

* * *

- ASSAY DETAILS: Drug concentration in spleen of C57BL/6 mouse implanted with mouse B16-F10 cells at 50 mg/kg, ip measured after 1 hrs by UPLC-MS/MS analysis
- Format: ADME, organism-based
- CONDITION: read-out: Ct
OUTCOME MEASURE: concentration at 1 h

Inquiry: Give a short answer stating reported concentration at 1 h for Cc1c(COc2cc(OCc3cccc(C#N)c3)c(CN3CCCCC3C(=O)NCCNC(=O)CCCC[C@@H]3SC[C@@H]4NC(=O)N[C@@H]43)cc2Cl)cccc1-c1ccccc1 (stereo partly specified) .
Reply text: 3470 ng/mL

* * *

- STUDY SYSTEM: Programmed cell death protein 1/Programmed cell death 1 ligand 1 (Homo sapiens, UniProt Q9NZQ7)
- ASSAY DETAILS: Inhibition of GST-tagged PD-1 (unknown origin)/His-tagged PD-L1 (unknown origin) interaction by HTRF binding assay relative to control
IC50 values, listed per item
Form entry: value (nM) — number only.

* Cc1c(COc2cc(OCc3cccc(C#N)c3)c(CN3CCCCC3C(=O)NCCNC(=O)CCCC[C@@H]3SC[C@@H]4NC(=O)N[C@@H]43)cc2Cl)cccc1-c1ccccc1 (stereo partly specified) | 1.8

Inquiry: Give a short answer stating reported IC50 for Cc1c(COc2cc(OCc3cccc(C#N)c3)c(CN3CCCCC3C(=O)NCCCNC(=O)CCCC[C@@H]3SC[C@@H]4NC(=O)N[C@@H]43)cc2Cl)cccc1-c1ccccc1 (stereo partly specified) .
Reply text: 5.6

Inquiry: Give a short answer stating reported IC50 for Cc1c(COc2cc(OCc3cccc(C#N)c3)c(CN3CCCCC3C(=O)NC3CCN(C(=O)CCCC[C@@H]4SC[C@@H]5NC(=O)N[C@@H]54)CC3)cc2Cl)cccc1-c1ccccc1 (stereo partly specified) .
Reply text: 11.6

Inquiry: Give a short answer stating reported IC50 for Cc1c(COc2cc(OCc3cccc(C#N)c3)c(CN3CCCCC3C(=O)N3CCN(C(=O)CCCC[C@@H]4SC[C@@H]5NC(=O)N[C@@H]54)CC3)cc2Cl)cccc1-c1ccccc1 (stereo partly specified) .
Reply text: 3.4

Inquiry: Give a short answer stating reported IC50 for Cc1c(COc2cc(OCc3cccc(C#N)c3)c(CN3CCCCC3C(=O)N(C)CCNC(=O)CCCC[C@@H]3SC[C@@H]4NC(=O)N[C@@H]43)cc2Cl)cccc1-c1ccccc1 (stereo partly specified) .
Reply text: 10.8

Inquiry: Give a short answer stating reported IC50 for Cc1c(COc2cc(OCc3cccc(C#N)c3)c(CN3CCCCC3C(=O)N3CCC(NC(=O)CCCC[C@@H]4SC[C@@H]5NC(=O)N[C@@H]54)CC3)cc2Cl)cccc1-c1ccccc1 (stereo partly specified) .
Reply text: 4

* * *

- STUDY SYSTEM: Programmed cell death protein 1/Programmed cell death 1 ligand 1 (Homo sapiens) (UniProt Q15116+Q9NZQ7)
- ASSAY DETAILS: Inhibition of GST-tagged PD-1 (unknown origin)/His-tagged PD-L1 (unknown origin) interaction at 100 nM by HTRF binding assay relative to control
- Type: protein-complex assay
inhibition values, listed per item
Form entry: value (%) — number only.

Below: 2 molecules and their reported inhibition.
* Cc1c(COc2cc(OCc3cccc(C#N)c3)c(CNC(C)(C)C(=O)N3CCC(NC(=O)CCCC[C@@H]4SC[C@@H]5NC(=O)N[C@@H]54)CC3)cc2Cl)cccc1-c1ccccc1 | 64.1
* Cc1c(COc2cc(OCc3cccc(C#N)c3)c(CNC(C)(C)C(=O)NCCNC(=O)CCCC[C@H]3SC[C@H]4NC(=O)N[C@H]43)cc2Cl)cccc1-c1ccc2c(c1)OCCO2 | 66.9

Moving on to the next molecule.
Inquiry: Give a short answer stating reported inhibition for Cc1c(COc2cc(OCc3cccc(C#N)c3)c(CN3CCCCC3C(=O)N(C)CCNC(=O)CCCC[C@@H]3SC[C@@H]4NC(=O)N[C@@H]43)cc2Cl)cccc1-c1ccccc1 (stereo partly drawn) .
Reply text: 104

* * *

- ASSAY DETAILS: Drug concentration in heart of C57BL/6 mouse implanted with mouse B16-F10 cells at 50 mg/kg, ip measured after 1 hrs by UPLC-MS/MS analysis
- Assay type: ADME, organism-based
- CONDITION: read-out: Ct
OUTCOME MEASURE: concentration at 1 h (ng/mL)
Form entry: value (ng/mL) — number only.

Inquiry: Give a short answer stating reported concentration at 1 h for Cc1c(COc2cc(OCc3cccc(C#N)c3)c(CN3CCCCC3C(=O)NCCNC(=O)CCCC[C@@H]3SC[C@@H]4NC(=O)N[C@@H]43)cc2Cl)cccc1-c1ccccc1 (stereo partly specified) .
Reply text: 15.9

Reference for the values: ChEMBL document CHEMBL5346977
